Species on record: Rattus norvegicus
Assay: Selectivity index, ratio of IC50 for inhibition of rat serum butyrylcholine esterase to IC50 for inhibition of rat cortex AChE
Criterion: Ratio IC50 strictly under 2. Met: t. Not met: f.

Inquiry: A record lists CCN(C)C(=O)Oc1ccc(-c2coc3cc(OC(=O)N(C)CC)cc(O)c3c2=O)cc1 . Is its Ratio IC50 below 2?
Reply text: f

Inquiry: Strictly below 2 in Ratio IC50? CCN(C)C(=O)Oc1ccc(-c2coc3cc(OC(=O)N(C)CC)cc(OC(=O)N(C)CC)c3c2=O)cc1
Reply text: t

Inquiry: Consider O=C1CC(c2ccc(OC(=O)N3CCCC3)cc2)Oc2cc(OC(=O)N3CCCC3)cc(O)c21 (centres undefined) . Does its Ratio IC50 lie strictly below 2?
Reply text: t

Inquiry: I wonder whether CON(C)C(=O)Oc1ccc(C2CC(=O)c3c(O)cc(OC(=O)N(C)OC)cc3O2)cc1 (centres undefined) has Ratio IC50 below 2. Can you tell?
Reply text: t

Inquiry: Strictly below 2: is that where Ratio IC50 of CON(C)C(=O)Oc1ccc(-c2cc(=O)c3c(O)cc(OC(=O)N(C)OC)cc3o2)cc1 sits?
Reply text: f

Inquiry: Dear colleague, could you confirm whether Ratio IC50 of CCN(C)C(=O)Oc1ccc(C2CC(=O)c3c(O)cc(OC(=O)N(C)CC)cc3O2)cc1 (centres undefined) falls below 2? Thanks.
Reply text: f

Inquiry: Identify whether the compound O=C1CC(c2ccc(OC(=O)N(c3ccccc3)c3ccccc3)cc2)Oc2cc(OC(=O)N(c3ccccc3)c3ccccc3)cc(O)c21 (centres undefined) records Ratio IC50 below 2.
Reply text: t

Inquiry: Decide: Ratio IC50 of CCN(C)C(=O)Oc1ccc(-c2cc(=O)c3c(OC(=O)N(C)CC)cc(OC(=O)N(C)CC)cc3o2)cc1 strictly below 2?
Reply text: f

Inquiry: Please let me know if CCN(C)C(=O)Oc1ccc(-c2cc(=O)c3c(O)cc(OC(=O)N(C)CC)cc3o2)cc1 shows Ratio IC50 below 2.
Reply text: f

====

Species on record: Rattus norvegicus
Assay: Selectivity index, ratio of IC50 for inhibition of rat serum butyrylcholine esterase to IC50 for inhibition of rat cortex AChE
Parameter: Ratio IC50

Inquiry: Fill in: Ratio IC50 of CCN(CC)C(=O)Oc1ccc(C2CC(=O)c3c(O)cc(OC(=O)N(CC)CC)cc3O2)cc1 (stereo not given) is ___
Reply text: 2.1

Inquiry: Query: Ratio IC50; subject: CCN(C)C(=O)Oc1cc(O)c2c(c1)OC(c1ccc(O)cc1)CC2=O (stereo not given)
Reply text: 2.4

Inquiry: // Ratio IC50 lookup, key: O=C1CC(c2ccc(OC(=O)N3CCOCC3)cc2)Oc2cc(OC(=O)N3CCOCC3)cc(O)c21 (stereo not given)
Reply text: 2.1

Inquiry: Using the record for CCN(CC)C(=O)Oc1cc(O)c2c(c1)OC(c1ccc(O)cc1)CC2=O (stereo not given) , report its Ratio IC50.
Reply text: 1.8

Inquiry: Fill in the blank: the reported Ratio IC50 of CON(C)C(=O)Oc1ccc(-c2coc3cc(OC(=O)N(C)OC)cc(O)c3c2=O)cc1 is ____.
Reply text: 2

====

Assay: Permeability of compound at 100 ug/mL by PAMPA-BBB assay
Parameter: Papp at 100 ug/mL (×10⁻⁶ cm/s)
The figure you give is taken to be in ×10⁻⁶ cm/s; do not add the unit.

Inquiry: Need Papp at 100 ug/mL of CCN(C)C(=O)Oc1ccc(C2CC(=O)c3c(O)cc(OC(=O)N(C)CC)cc3O2)cc1 (stereo unspecified) , thanks.
Reply text: 16.8
